test: yeast display, Sf9 membrane polyspecificity reagent, FACS + sequencing; frameworks hold sequencing errors
endpoint label: polyreactivity (PSR sort gate)

# monomer sequence, endpoint label, reported
measured = [
    ("QVQLVQSGGGLVQAGGRLRLSCAASGRIFGFYAMGWYRQAPGKERELVAAITSTGRTYYADSVKGRFTISRDNAKNTVYLQMNSLKPEDTAVYYCAAGYGRADSGWVRMNYWGQGTQVTVSS", "polyreactivity (PSR sort gate)", "high polyreactivity"),
    ("QVQLVESGGGLVQAGGSLRLSCAASGSTFSTNAMGWYRQAPAKERELVAAISYSGGSTYYADSVKGRFTISRDNAKNTVYLQMLSLKPEDTAVYYCAADGYYYNSGGRYYEFYYWGQGTQVTVSS", "polyreactivity (PSR sort gate)", "low polyreactivity"),
    ("QVQLVESGGGLVQAGGSLRLSCAASGRIFRTYAMGWYRQAPGKERELVAAISGRGGNTYYADSVKGRFTSSRDNAKNTVYLQMNSLKPEETAVYYCAASKPARDTQQRWVYAGYDYWGQGTQVTVSS", "polyreactivity (PSR sort gate)", "high polyreactivity"),
    ("QVQLVESGGGLVQAGGSLRLSCAASGRTFTPNAMGWYRQAPGKERELVASIRRGTSTYYADSVKGRFTISRDNAKNTVYLQMNSLKPEDTAVYYCAARPFVPRVGTYSYYWGQGTQVTVSS", "polyreactivity (PSR sort gate)", "high polyreactivity"),
    ("QVQLVESGGGLVQAGGTLRLSCDASGLIFEYYAMGWYRQAPGKERELVAVINWSGASTYYADSVKGRFTISRDNAKNTVFLQMNSLKPEDTAVYYCAAGVLITGLRFDYWGQGSQVTVSS", "polyreactivity (PSR sort gate)", "low polyreactivity"),
    ("QVQIVESGGGLVQAGGSLRLSCAASGFTLHRNAMGWYRQAPGKERELVANISWTGGSTYYADSVKGRFTISRDNAKNTVYLQMNSLKPEDTAVYYCAARGHWSIYGYYYLGATAFGYWGQGTQVTVSS", "polyreactivity (PSR sort gate)", "low polyreactivity"),
    ("QVQLVESGGGLVQAGGSLRLSCAASGSIFQHNDMGWYRQAPGKERELVAAMSRSGGSTYYADSVKGRFTISRDNAKNTVYLQRNSLKPEDTAVYYCNAGRRTGRYAYWGQGTQVTVSS", "polyreactivity (PSR sort gate)", "high polyreactivity"),
    ("QVQLVESGGGLDQAGGSLRLSCAASGFIFPAYAMGWYRQAPGKERELVAAITTRGGSTYYADSVKGRFTISRDNAKNTVYLQMNSLKPEDTAVYYCAAYAVWYRYYYWGQGTQVTVSS", "polyreactivity (PSR sort gate)", "low polyreactivity"),
    ("QVQLVESGRGLVQAGGSLRLSCAGSGSIFEGYVMGWSRQAPGKEMELVAAITSGGGSTYYADSVKGRFTSSRDNAKNTVYLQMISVKPVDTALYYCNAVYRWVYRSYEYWGQGTQGTVSS", "polyreactivity (PSR sort gate)", "high polyreactivity"),
    ("QVQLVESGGGLVQAGGSLRLSCAASGFTFNWYAMGWYRQAPGKERELVAAINSSGGNTYYADSVKGRFTISRDNAKNTVYLQMNSLKPEDTAVYYCAALLWGYVAFDYWGQGTQVTVSS", "polyreactivity (PSR sort gate)", "high polyreactivity"),
    ("QVQLVESAGGLVQAGGSLRLSCAASGSTFPKYAMGWSRQAPGKERELVASISVTTGSTYYADSVKGRFTISRDNAKNTVYLQMNSLKPEDTAVYYCAKRTYSRKFRGAYNYGGQGTQVTVSS", "polyreactivity (PSR sort gate)", "high polyreactivity"),
    ("QVQLEESGGGLVQAGGSLRLSCAASGSILVAYAMGWYRQAPGKERELVAAISSVGNTYYADSVKGRFTISRDNAKNTVYLQMNSLKPEDTAVYYCNAVYRVWYAEWSTVGSPHDYWGQGTQVTVSS", "polyreactivity (PSR sort gate)", "low polyreactivity"),
    ("QVQLVESGGGLVQAGGSLRLSCAASGRTFRVYAMGWYRQAPGKERELVATITSSGGSTYYADSVKGRLTISRDNAMNTVDLQMNSLKPEDTAGYYCNVSVYYKYVSSYYYWGQGTQVTVSS", "polyreactivity (PSR sort gate)", "low polyreactivity"),
    ("QVQLVESGGGLVQAGGSLRLSCAASGFTFGRNAMGWYRQEPGKERELVATISKSGGSTYYADSVKGRFTISRDNAKNTVYVQMNSLKPEDTAVYYCADRSRRLPGDYWGQGTQVTVSS", "polyreactivity (PSR sort gate)", "low polyreactivity"),
    ("QVQLVESGGGLVQAGGSLRLSCAASGRTFRIYARGWSRQAPGKERELDAAITKRGGITYYADSVKGRFTISRDNAQNTVYLQMNSLKPEDTAVYYCAKAWKSWSRISKSTFYWTSGDYWGQGTQVTVSS", "polyreactivity (PSR sort gate)", "high polyreactivity"),
    ("QVQLVESGGGLVQAGGSLRLSCAASGRIFAVYAMGWYRQAPGKERELVAAISWSGGRTYYADSVKGRFTISRDNAKNTVYLQMNSLKPEDTAVYYCNRTPTGSYLYGMDYWGQGTQVTVSS", "polyreactivity (PSR sort gate)", "high polyreactivity"),
    ("QVQLVESGGGLVQAGGSLRLSCAASGRIFSTYAMGWYRQAPGKERELVAAINKIGGSTYYADSVKGRFTISRDNAKNTVYLQMNSLIPEDTAVYYCAADAPYYPVRRYYYWGQGTQVTVSS", "polyreactivity (PSR sort gate)", "low polyreactivity"),
    ("QVQLVESGGGLVQAGGSLRLSCAASGRTFFSYTMGWYRQAPGKERELVAAISDSDGRTYYADSVKGRFTISRDNAKNTVYLQMNSLKPEDTAVYYCAAVPDKYWSRVRRYLFEHNYWGQGTQVTVSS", "polyreactivity (PSR sort gate)", "low polyreactivity"),
    ("QVQLVESGGALVQAGGSLRLSCSASGSIFHGYIMGWYRQAPGKERELVAAITTGGSTNYADSVKGRFTISRDNAKNTVYLQMNSLKPEDTAVYDCATDPYVDPSRDYLELGGYWGQGTQVTVSS", "polyreactivity (PSR sort gate)", "low polyreactivity"),
    ("QVQLVESGGGLVQAGGSLRLSCAASGSIFGRYGAMGWYRQAPGKDRELVAAIRTSGVSTYYADSVKGRYTISRDNAKKTVYLQMNSLKPEDTAVYYCAKGYTSYNLGKYGYWGQGTQVTVTS", "polyreactivity (PSR sort gate)", "high polyreactivity"),
    ("QVQLVESAGGLVQAGVSLRLSCDASGRIFRHNTMGWYRQAPGKERELVAAIRYSGGRTYYADSVKGRFTISRDNAKNTVYLQMNSLKPEDTAVYYCAKDTGQGYYWGQGTQVTVSS", "polyreactivity (PSR sort gate)", "high polyreactivity"),
]
